# TARGET_OF_ASSAY: Mitogen-activated protein kinase 10 (Homo sapiens)
# Sequence (P53779 whole entry): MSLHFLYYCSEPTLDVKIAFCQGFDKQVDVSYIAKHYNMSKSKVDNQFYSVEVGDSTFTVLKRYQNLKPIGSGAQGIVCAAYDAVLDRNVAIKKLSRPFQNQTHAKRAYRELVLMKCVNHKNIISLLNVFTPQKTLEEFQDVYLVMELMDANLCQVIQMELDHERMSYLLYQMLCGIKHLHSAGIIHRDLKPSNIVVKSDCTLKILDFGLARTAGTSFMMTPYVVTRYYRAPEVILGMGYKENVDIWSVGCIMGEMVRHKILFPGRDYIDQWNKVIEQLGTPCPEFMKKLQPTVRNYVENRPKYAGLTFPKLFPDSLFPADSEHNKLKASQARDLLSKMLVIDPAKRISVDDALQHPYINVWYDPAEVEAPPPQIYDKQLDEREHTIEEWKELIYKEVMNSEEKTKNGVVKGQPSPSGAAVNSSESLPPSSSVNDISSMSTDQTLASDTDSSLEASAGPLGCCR
# ASSAY_REMARKS: Inhibition of JNK3 by HTRF assay
RECORDED_ENDPOINT: pIC50
Remember, pIC50 is on a log scale: it is -log10 of the molar concentration.

Task: Find the measured pIC50 of Nc1ccc(-c2cnc3ccc4ccncc4c3c2)cc1 and report it.
Output: 6.29

Task: Find the measured pIC50 of CS(=O)(=O)Nc1ccc(-c2cnc3cccc(Nc4ncccc4Cl)c3c2)cc1 and report it.
Output: 4.82

Task: Find the measured pIC50 of c1ccc(-c2cnc3ccc4ccncc4c3c2)cc1 and report it.
Output: 6.00

Task: Find the measured pIC50 of CS(=O)(=O)Nc1ccc(-c2cnc3cccc(Nc4ccc(Cl)cn4)c3c2)cc1 and report it.
Output: 6.92

Task: Find the measured pIC50 of CC(=O)N(C(C)=O)c1ccc(-c2cnc3ccc4ccncc4c3c2)cc1 and report it.
Output: 5.80

Task: Find the measured pIC50 of c1cc2ccc3ncc(-c4ccc(N5CCOCC5)cc4)cc3c2cn1 and report it.
Output: 5.89

Task: Find the measured pIC50 of CC(=O)Nc1ccc(-c2cnc3ccc4ccncc4c3c2)cc1 and report it.
Output: 6.28

Task: Find the measured pIC50 of CS(=O)(=O)Nc1ccc(-c2cnc3cccc(Nc4ncccn4)c3c2)cc1 and report it.
Output: 6.32

Task: Find the measured pIC50 of CS(=O)(=O)N(c1ccc(-c2cnc3ccc4ccncc4c3c2)cc1)S(C)(=O)=O and report it.
Output: 6.68

Task: Find the measured pIC50 of CS(=O)(=O)Nc1ccc(-c2cnc3ccc4ccncc4c3c2)cc1 and report it.
Output: 6.03

Task: Find the measured pIC50 of c1cc2ccc3ncc(-c4ccc(-c5ccn[nH]5)cc4)cc3c2cn1 and report it.
Output: 5.44
